These measurements were taken from ChEMBL document CHEMBL4024717.

Tested on: HT-29
Assay overview: Cytotoxicity against human HT-29 cells after 24 hrs by MTT assay
Assay type: functional, cell-based
Details: HT-29, 24 h
Readout name: pIC50
Here pIC50 is given on a logarithmic scale as minus log10 of the concentration in mol/L.

Consider the compound `NC(=O)c1cc(I)ccc1NC(=O)c1ccccc1-c1ccccc1` and give its measured pIC50.
5.00

---

Tested on: MDA-MB-231
Assay overview: Cytotoxicity against human MDA-MB-231 cells after 24 hrs by MTT assay
Type: functional, cell-based
Details: MDA-MB-231, 24 h
Readout name: pIC50
Here pIC50 is given on a logarithmic scale as minus log10 of the concentration in mol/L.

Consider the compound `NC(=O)c1cc(I)ccc1NC(=O)c1ccccc1-c1ccccc1` and give its measured pIC50.
5.00
